Just for reference, ChEMBL document CHEMBL3433997 is where these values come from.

Listed here: items and their measured inhibition.
target: Solute carrier family 2, facilitated glucose transporter member 1 (Homo sapiens)
measurementNotes: ST_JUDE_LEISH: Cytotoxicity at 2uM final concentration against transgenic Leishmania Mexicana promastigotes LmGLUT1 that are glucose transport deficient and complemented with the human glucose transporter GLUT1. Activity is measured by DNA content using SYBR green in vitro
Assay type: functional
Hi! Could you send only the number? It should be in %, unit omitted.

Look up inhibition of CCCCCCCc1c2c(C)c(C(=O)OCC)nc-2cc2n1CC(C)=C2C and report it.
3.56

---

Listed here: items and their measured inhibition.
target: Hexose transporter 1 (Plasmodium falciparum) (UniProt O97467)
measurementNotes: ST_JUDE_LEISH: Cytotoxicity at 2uM final concentration against transgenic Leishmania Mexicana promastigotes LmPfHT that are glucose transport deficient and complemented with the Plasmodium falciparum hexose transporter. Activity is measured by DNA content using SYBR green in vitro
Assay type: functional
Hi! Could you send only the number? It should be in %, unit omitted.

Study these solved cases before continuing.
Cc1cc(C)c2oc(-c3cccc(NC(=O)c4ccc([N+](=O)[O-])o4)c3C)nc2c1; 10.4
OC(c1ccccc1)C1CN(Cc2ccccc2)CCC1(O)c1ccccc1 (stereo unspecified); 7.93
COc1cc([N+](=O)[O-])ccc1NC(=O)Nc1ccc(OC(F)(F)F)cc1; 2.37
CN(C)CCNCc1cccc(-c2ccc3c(Nc4ccc(Oc5ccccn5)cc4)ccnc3c2)c1; 1.4
COc1ccc2c(=NN=CC=Cc3ccccc3)cc(C)[nH]c2c1; 4.29
CCN(CC)c1ccc(NC(=S)NC2CCN(CCCCCNC(=O)/C=C/c3ccc(Cl)c(Cl)c3)CC2)cc1; 6.72
CC1CN(Cc2cccc(F)c2)CCN1c1ccc(NC(=O)c2cccs2)cc1 (stereo unspecified); -1.57
COc1ccc2nc(C)cc(NCc3cccc4ccccc34)c2c1; 3.81
CCOC(=O)CCCCCNC[C@H](O)c1ccccc1; -0.8
Cc1cc(Cl)ccc1NC(=O)NCCCCCN1CCC(c2c[nH]c3ccccc23)CC1; 14.9

Look up inhibition of COc1ccc(CN2CCC(CNCc3cccc(-c4ccccc4)c3)CC2)cc1 and report it.
0.46

Look up inhibition of CC(C)CNCc1cccc(-c2cccc(CN(CCCN3CCN(C)CC3)C(=O)/C=C/c3ccccc3)c2)c1 and report it.
-1.23

Look up inhibition of CC(C)[C@H](NCC(=O)c1ccccc1)C(=O)O and report it.
0.65

Look up inhibition of CN(C)CCCN(C)C(=O)c1cc2cc(-c3ccccc3)ccc2n1S(=O)(=O)c1ccccc1 and report it.
-2.36

Look up inhibition of COc1ccc(C2CCN(CCCCNC(=O)c3ccc(NC(=O)c4ccc(Cl)cc4)cc3)CC2)c(OC)c1 and report it.
5.21

---

target: Glucose transporter (Leishmania mexicana) (UniProt O61059)
measurementNotes: ST_JUDE_LEISH: Cytotoxicity at 2uM final concentration against transgenic Leishmania Mexicana promastigotes LmGT2 that are glucose transport deficient and complemented with the L. Mexicana glucose transporter 2. Activity is measured by DNA content using SYBR green in vitro
Type: functional
assayEndpoint: inhibition (%)
Hi! Could you send only the number? It should be in %, unit omitted.

Study these solved cases before continuing.
O=C1C(c2ccccc2)=C(Nc2cccc([N+](=O)[O-])c2)c2ccccc21; 9.44
c1ccc(CN2CCN(CCCCNc3c4ccccc4nc4ccccc34)CC2)cc1; 19.4
O=C(c1ccc(F)cc1)N1CCOC(CCN2CCC(c3ccccc3)CC2)(c2ccc(Cl)c(Cl)c2)C1 (stereo not given); 5.2
CC(C)(C)[C@@H](Nc1ccc(C#N)c2ccccc12)C(=O)NC1(Cc2ccc(O)cc2)CCCC1; 0.41

Look up inhibition of CN(CCc1ccccc1)c1ncc(-c2cccc(CNCCC3CCCN3C)c2)cn1 (stereo not given) and report it.
109

Look up inhibition of O=C(COC(=O)c1cccc(S(=O)(=O)N2CCc3ccccc32)c1)NNC(=O)c1cccs1 and report it.
2.91

Look up inhibition of N#Cc1ccc(CN2CCCN(Cc3cccc(NC(=O)c4ccc(-c5ccccc5)cc4)c3)CC2)cc1 and report it.
4.12

Look up inhibition of O=C(Nc1ccc(Cl)c(Cl)c1)Nc1cc(C(F)(F)F)ccc1Cl and report it.
1.28

Look up inhibition of O=C(Nc1cccc(-c2csc(-c3nc4ccccc4[nH]3)c2)c1)c1cccnc1 and report it.
-0.53

Look up inhibition of CC(C)Cn1ccc2c3c(N)nc(N)nc3ccc21 and report it.
17

Look up inhibition of COc1cccc2c(NN=Cc3cccc(Cl)c3)cc(C)nc12 and report it.
1.05
